The values you see were collected from the supplement of paper PMC9112550.

System: Escherichia coli TOP10
procedure_text: shrunken log2 fold change of peptide-encoding DNA abundance (4.5 h post-induction vs induction); higher = less antimicrobial activity (less host growth inhibition)
experimental_parameters: time post-induction: 4.5 h; library: site-saturation at positions 5, 18, 19, 20
Response key: condition met means shrunken log2 fold change >= 0.03; condition not met means shrunken log2 fold change < 0.03.

Solved entries (count: 8):
>  <monomer_sequence>
RRIRCRPPRLPRPRPRPYYFPRP

>  <qualitative_label>
condition not met

$$$$
>  <monomer_sequence>
RRIRGRPPRLPRPRPRPHDWPRP

>  <qualitative_label>
condition met

$$$$
>  <monomer_sequence>
RRIRCRPPRLPRPRPRPDFKPRP

>  <qualitative_label>
condition not met

$$$$
>  <monomer_sequence>
RRIRIRPPRLPRPRPRPFYGPRP

>  <qualitative_label>
condition not met

$$$$
>  <monomer_sequence>
RRIRMRPPRLPRPRPRPIFDPRP

>  <qualitative_label>
condition not met

$$$$
>  <monomer_sequence>
RRIRHRPPRLPRPRPRPLHLPRP

>  <qualitative_label>
condition not met

$$$$
>  <monomer_sequence>
RRIRKRPPRLPRPRPRPYQEPRP

>  <qualitative_label>
condition met

$$$$
>  <monomer_sequence>
RRIRQRPPRLPRPRPRPRFNPRP

>  <qualitative_label>
condition not met

$$$$

Query: In plain terms: is recorded shrunken log2 fold change at least 0.03 for RRIRPRPPRLPRPRPRPVMCPRP ?
Response: condition met

Query: Hi team, for RRIRSRPPRLPRPRPRPKYFPRP , is the recorded shrunken log2 fold change at or above 0.03?
Response: condition not met

Query: State whether the measured shrunken log2 fold change reaches 0.03, counting equality as reaching it, for RRIRLRPPRLPRPRPRPTVDPRP
Response: condition not met

----------
Test system: Escherichia coli TOP10
procedure_text: shrunken log2 fold change of peptide-encoding DNA abundance (4.5 h post-induction vs induction); higher = less antimicrobial activity (less host growth inhibition)
experimental_parameters: time post-induction: 4.5 h; library: site-saturation at positions 5, 18, 19, 20
Give measured shrunken log2 fold change for each item. Keep answers brief.
Answers are plain numbers.

Field: example entries. Status: answers known.
>  <monomer_sequence>
RRIRERPPRLPRPRPRPRHEPRP

>  <measure>
shrunken log2 fold change

>  <reading>
-0.304

$$$$
>  <monomer_sequence>
RRIRSRPPRLPRPRPRPYTWPRP

>  <measure>
shrunken log2 fold change

>  <reading>
-0.989

$$$$
>  <monomer_sequence>
RRIRWRPPRLPRPRPRPKRWPRP

>  <measure>
shrunken log2 fold change

>  <reading>
0.441

$$$$
>  <monomer_sequence>
RRIRTRPPRLPRPRPRPCCKPRP

>  <measure>
shrunken log2 fold change

>  <reading>
-0.279

$$$$
>  <monomer_sequence>
RRIRNRPPRLPRPRPRPRAGPRP

>  <measure>
shrunken log2 fold change

>  <reading>
0.25

$$$$

Batch: shrunken log2 fold change for all items listed.
1. RRIRPRPPRLPRPRPRPEIQPRP
2. RRIRHRPPRLPRPRPRPIDQPRP
3. RRIRRRPPRLPRPRPRPKECPRP
4. RRIRYRPPRLPRPRPRPICMPRP
5. RRIRLRPPRLPRPRPRPHNSPRP
6. RRIRLRPPRLPRPRPRPCKIPRP

Response:
1: 0.07; 2: 0.0834; 3: 0.0842; 4: -0.018; 5: -0.492; 6: -0.357

Return reported shrunken log2 fold change values for all items listed beneath this line.
1. RRIRHRPPRLPRPRPRPTIVPRP
2. RRIRRRPPRLPRPRPRPNQIPRP
3. RRIRVRPPRLPRPRPRPHQGPRP
4. RRIRLRPPRLPRPRPRPEDVPRP

Response:
-0.292
-0.349
0.105
-0.0818

----------
System: Escherichia coli TOP10
procedure_text: shrunken log2 fold change of peptide-encoding DNA abundance (4.5 h post-induction vs induction); higher = less antimicrobial activity (less host growth inhibition)
experimental_parameters: time post-induction: 4.5 h; library: site-saturation at positions 5, 18, 19, 20
measure: shrunken log2 fold change
One number for each entry.

>  <monomer_sequence>
RRIRCRPPRLPRPRPRPADRPRP

>  <measure>
shrunken log2 fold change

>  <reading>
-0.0122

$$$$
>  <monomer_sequence>
RRIRERPPRLPRPRPRPMFCPRP

>  <measure>
shrunken log2 fold change

>  <reading>
-0.168

$$$$
>  <monomer_sequence>
RRIRGRPPRLPRPRPRPEFTPRP

>  <measure>
shrunken log2 fold change

>  <reading>
0.74

$$$$
>  <monomer_sequence>
RRIRERPPRLPRPRPRPEYDPRP

>  <measure>
shrunken log2 fold change

>  <reading>
-0.00663

$$$$
>  <monomer_sequence>
RRIRTRPPRLPRPRPRPPQCPRP

>  <measure>
shrunken log2 fold change

>  <reading>
0.0145

$$$$

Below are some sequences; for each one, tell me its shrunken log2 fold change.
1. RRIRPRPPRLPRPRPRPMGMPRP
2. RRIRSRPPRLPRPRPRPEFKPRP
3. RRIRWRPPRLPRPRPRPRHYPRP
4. RRIRSRPPRLPRPRPRPQVDPRP
5. RRIRIRPPRLPRPRPRPSDAPRP

Response:
[0.0285, 0.00218, 0.00846, -0.296, -0.0664]

----------
Test system: Escherichia coli TOP10
procedure_text: shrunken log2 fold change of peptide-encoding DNA abundance (4.5 h post-induction vs induction); higher = less antimicrobial activity (less host growth inhibition)
experimental_parameters: time post-induction: 4.5 h; library: site-saturation at positions 5, 18, 19, 20
Tick class 1 if shrunken log2 fold change is -0.1 or greater. Tick class 0 if shrunken log2 fold change is less than -0.1.

>  <monomer_sequence>
RRIRSRPPRLPRPRPRPHCNPRP

>  <qualitative_label>
class 0

$$$$
>  <monomer_sequence>
RRIRMRPPRLPRPRPRPAEHPRP

>  <qualitative_label>
class 1

$$$$
>  <monomer_sequence>
RRIRGRPPRLPRPRPRPSAKPRP

>  <qualitative_label>
class 1

$$$$
>  <monomer_sequence>
RRIRVRPPRLPRPRPRPDITPRP

>  <qualitative_label>
class 0

$$$$

Query: In plain terms: is recorded shrunken log2 fold change at least -0.1 for RRIRHRPPRLPRPRPRPQQVPRP ?
Response: class 1

Query: Is the recorded value of shrunken log2 fold change equal to or greater than -0.1 for this sequence? RRIRGRPPRLPRPRPRPCSHPRP
Response: class 0

Query: Reported shrunken log2 fold change at or above -0.1? RRIRKRPPRLPRPRPRPCRCPRP
Response: class 1

Query: Item RRIRLRPPRLPRPRPRPRTLPRP with shrunken log2 fold change of -0.1 or above?
Response: class 0

Query: Does RRIRGRPPRLPRPRPRPAFIPRP have a reported shrunken log2 fold change of at least -0.1?
Response: class 0

Query: Please tell me: is the sequence RRIRWRPPRLPRPRPRPAVPPRP at or over -0.1 in terms of shrunken log2 fold change?
Response: class 1

Query: Confirm if shrunken log2 fold change reported for the sequence RRIRKRPPRLPRPRPRPWAYPRP is -0.1 or above.
Response: class 0

Query: Could you verify whether the entry RRIRKRPPRLPRPRPRPGMKPRP shows shrunken log2 fold change of no less than -0.1?
Response: class 1

----------
System: Escherichia coli TOP10;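 note: peptides expressed intracellularly from a pBAD plasmid library in pooled LB shake-flask culture, induced with 0.3% L-arabinose, DNA abundance read by NGS, three biological replicates, DESeq2 with apeglm shrinkage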
procedure_text: shrunken log2 fold change of peptide-encoding DNA abundance (4.5 h post-induction vs induction); higher = less antimicrobial activity (less host growth inhibition)
experimental_parameters: time post-induction: 4.5 h; library: site-saturation at positions 5, 18, 19, 20
shrunken log2 fold change below -0.03 gives f; shrunken log2 fold change at or above it gives t.

Sample answers from the record:
>  <monomer_sequence>
RRIRNRPPRLPRPRPRPNYWPRP

>  <qualitative_label>
f

$$$$
>  <monomer_sequence>
RRIRLRPPRLPRPRPRPTCWPRP

>  <qualitative_label>
t

$$$$
>  <monomer_sequence>
RRIRQRPPRLPRPRPRPQYLPRP

>  <qualitative_label>
f

$$$$
>  <monomer_sequence>
RRIRKRPPRLPRPRPRPCKLPRP

>  <qualitative_label>
f

$$$$
>  <monomer_sequence>
RRIRRRPPRLPRPRPRPPRVPRP

>  <qualitative_label>
t

$$$$
>  <monomer_sequence>
RRIRYRPPRLPRPRPRPVWKPRP

>  <qualitative_label>
t

$$$$
>  <monomer_sequence>
RRIRNRPPRLPRPRPRPLMKPRP

>  <qualitative_label>
f

$$$$
>  <monomer_sequence>
RRIRMRPPRLPRPRPRPCSKPRP

>  <qualitative_label>
t

$$$$

Query: In plain terms: is recorded shrunken log2 fold change at least -0.03 for RRIRHRPPRLPRPRPRPDKPPRP ?
Response: f

Query: Threshold query (shrunken log2 fold change >= -0.03) on RRIRFRPPRLPRPRPRPAEGPRP
Response: t

Query: Is shrunken log2 fold change for RRIRGRPPRLPRPRPRPGNYPRP at or above -0.03?
Response: f

Query: For this sequence, is measured shrunken log2 fold change -0.03 or higher? RRIRARPPRLPRPRPRPSCDPRP
Response: t

Query: Hi, just wondering whether RRIRHRPPRLPRPRPRPLEKPRP shows shrunken log2 fold change of -0.03 or higher.
Response: f
